Tested on: Echinochloa crus-galli (ECHCG)
Test: Post-emergence Test (glasshouse, percentage damage to the plant)
Assay type: in vivo
Conditions: post-emergence spray, 1000 g/ha unless otherwise stated, evaluated after 13 days
Listing of recorded Post-emergence Test ECHCG, percentage damage to the plant (five-point scale) by entry.
metric: Post-emergence Test ECHCG, percentage damage to the plant (five-point scale)

* CCn1c(C)c(-c2ccccc2Cl)c(=O)c(C(=O)O)c1-c1ccc(Cl)c(Cl)c1 | 4 (4=61-80%)
* CCn1c(C)c(-c2cccc(OCC(F)(F)F)c2)c(=O)c(C(=O)O)c1-c1ccc(Cl)c(Cl)c1 | 1 (1=0-20%)
* CCn1c(C)c(-c2cccc(OC)n2)c(=O)c(C(=O)O)c1-c1ccc(Cl)c(Cl)c1 | 3 (3=41-60%)
* CCn1c(C)c(-c2ccc(F)c(C#N)c2)c(=O)c(C(=O)O)c1-c1ccc(Cl)cc1 | 2 (2=21-40%)
* CCn1c(C)c(-c2cnn(C)c2)c(=O)c(C(=O)O)c1-c1ccc(Cl)c(Cl)c1 | 5 (5=81-100%)
* CCn1c(C)c(-c2ccc(F)nc2)c(=O)c(C(=O)O)c1-c1ccc(Cl)c(Cl)c1 | 4 (4=61-80%)
* CCn1c(C)c(-c2cc(OC)cc(OC)c2)c(=O)c(C(=O)O)c1-c1ccc(Cl)c(Cl)c1 | 2 (2=21-40%)
* CCn1c(C)c(-c2cc(Cl)c(F)c(Cl)c2)c(=O)c(C(=O)O)c1-c1ccc(Cl)cc1 | 1 (1=0-20%)
* CCn1c(C)c(-c2ccc(Cl)cc2OC)c(=O)c(C(=O)O)c1-c1ccc(Cl)c(Cl)c1 | 4 (4=61-80%)
* CCn1c(C)c(-c2ccccc2F)c(=O)c(C(=O)O)c1-c1ccc(Cl)c(Cl)c1 | 4 (4=61-80%)
* CCn1c(C)c(-c2cncc(OC)c2)c(=O)c(C(=O)O)c1-c1ccc(Cl)c(Cl)c1 | 1 (1=0-20%)
* CCn1c(C)c(-c2cc(F)c(OC)c(F)c2)c(=O)c(C(=O)O)c1-c1ccc(Cl)c(Cl)c1 | 1 (1=0-20%)
* CCn1c(C)c(-c2ncco2)c(=O)c(C(=O)O)c1-c1ccc(Cl)c(Cl)c1 | 3 (3=41-60%)
* CCn1c(C)c(-c2cncc(F)c2)c(=O)c(C(=O)O)c1-c1ccc(Cl)c(Cl)c1 | 1 (1=0-20%)
* CCn1c(C)c(-c2cccnc2)c(=O)c(C(=O)O)c1-c1ccc(Cl)c(Cl)c1 [Compound 21] | 3 (3=41-60%)
* CCn1c(C)c(-c2ccc(F)cc2F)c(=O)c(C(=O)O)c1-c1ccc(-c2ccc(F)cc2F)c(Cl)c1 | 1 (1=0-20%)
* CCn1c(C)c(-c2cccc(C#N)c2)c(=O)c(C(=O)O)c1-c1ccnc(Cl)c1 | 0
* CCn1c(C)c(-c2cc(Cl)c(OC)c(OC)c2)c(=O)c(C(=O)O)c1-c1ccc(Cl)c(Cl)c1 | 2 (2=21-40%)
* CCn1c(C)c(-c2ccnnc2)c(=O)c(C(=O)O)c1-c1ccc(Cl)c(Cl)c1 [Compound 35, 2,2,2-trifluoroacetate] | 2 (2=21-40%)
* CCn1c(C)c(-c2cnccn2)c(=O)c(C(=O)O)c1-c1ccc(Cl)cn1 | 0
* CCn1c(C)c(-c2ccc([N+](=O)[O-])cc2)c(=O)c(C(=O)O)c1-c1ccc(Cl)c(Cl)c1 | 5 (5=81-100%)
* CCn1c(C)c(-c2ccc(C(F)F)cc2)c(=O)c(C(=O)O)c1-c1ccc(Cl)c(Cl)c1 | 2 (2=21-40%)
* CCn1c(C)c(-c2ccc(C#N)cc2)c(=O)c(C(=O)O)c1-c1ccnc(Cl)c1 | 3 (3=41-60%)
* CCn1c(C)c(-c2cc(C)cc(C(F)(F)F)c2)c(=O)c(C(=O)O)c1-c1ccc(Cl)c(Cl)c1 | 1 (1=0-20%)
* CCn1c(C)c(-c2cc(Cl)nc(OC(C)C)c2)c(=O)c(C(=O)O)c1-c1ccc(Cl)c(Cl)c1 | 1 (1=0-20%)
* CCn1c(C)c(-c2ccc(Cl)cc2)c(=O)c(C(=O)O)c1-c1ccc(F)c(F)c1 | 3 (3=41-60%)
* CCn1c(C)c(C2=CCCC2)c(=O)c(C(=O)O)c1-c1ccc(Cl)c(Cl)c1 | 2 (2=21-40%)
* CCn1c(C)c(-c2cc(C)c(OC)c(C)c2)c(=O)c(C(=O)O)c1-c1ccc(Cl)c(Cl)c1 | 1 (1=0-20%)
* CCOC(=O)c1c(-c2ccc(F)cc2F)n(CC)c(C)c(-c2ccc(Cl)cc2)c1=O | 4 (4=61-80%)
* CCOC(=O)c1c(-c2ccc(F)c(F)c2)n(CC)c(C)c(-c2ccc(Cl)cc2)c1=O | 0
* CCn1c(C)c(-c2ccc(Cl)cc2)c(=O)c(C(=O)O)c1-c1ccc(Cl)c(Cl)c1 | 4 (4=61-80%)

Where do these numbers come from? They come from patent US12660819B2.
